Tested on: Plasmodium falciparum
test_details: Inhibition of Plasmodium falciparum protein farnesyltransferase at 0.5 nM by scintillation proximity assay
reported_endpoint: inhibition (%)
Report the value in % with no unit label.

Req: What value of inhibition has been recorded for this entry: Cn1cncc1CN1CC(N(CCOc2cccc3c2OCCO3)S(=O)(=O)c2ccccn2)Cc2cc(C#N)ccc21 (configuration not stated)
Resp: 10

Req: What value of inhibition has been recorded for this entry: Cn1cnc(S(=O)(=O)N(CCc2ccccc2F)C2Cc3cc(C#N)ccc3N(Cc3cncn3C)C2)c1 (configuration not stated)
Resp: 43

Req: What value of inhibition has been recorded for this entry: COC(=O)N1CCC(CN(C2Cc3cc(C#N)ccc3N(Cc3cncn3C)C2)S(=O)(=O)c2ccc3oc(=O)ccc3c2)CC1 (configuration not stated)
Resp: 2

Req: What value of inhibition has been recorded for this entry: COC(=O)N1CCC(CN(C2Cc3cc(C#N)ccc3N(Cc3cccnc3)C2)S(=O)(=O)c2ccccn2)CC1 (configuration not stated)
Resp: 3

Req: What value of inhibition has been recorded for this entry: COC(=O)NCCCN(C1Cc2cc(C#N)ccc2N(Cc2cncn2C)C1)S(=O)(=O)c1ccccn1 (configuration not stated)
Resp: 28

Req: What value of inhibition has been recorded for this entry: Cn1cnc(CN2CC(N(Cc3ccc(S(C)(=O)=O)cc3)S(=O)(=O)c3cn(C)cn3)Cc3cc(-c4ccccc4)ccc32)c1 (configuration not stated)
Resp: 32

Req: What value of inhibition has been recorded for this entry: CCC(=O)N1CCC(CN(C2Cc3cc(C#N)ccc3N(Cc3cncn3C)C2)S(=O)(=O)c2ccccn2)CC1 (configuration not stated)
Resp: 82

Req: What value of inhibition has been recorded for this entry: CC(C)COC(=O)N1CCC(CN(C2Cc3cc(C#N)ccc3N(Cc3cncn3C)C2)S(=O)(=O)c2cn(C)cn2)CC1 (configuration not stated)
Resp: 24

Req: What value of inhibition has been recorded for this entry: Cn1cnc(S(=O)(=O)N(CCCCN2C(=O)c3ccccc3C2=O)C2Cc3cc(C#N)ccc3N(Cc3cncn3C)C2)c1 (configuration not stated)
Resp: 90

Req: What value of inhibition has been recorded for this entry: Cn1cncc1CN1CC(N(CC(=O)NC(C)(C)C)S(=O)(=O)CCN)Cc2cc(C#N)ccc21 (configuration not stated)
Resp: 5

Req: What value of inhibition has been recorded for this entry: COC(=O)N1CCC(CN(C2Cc3cc(C#N)ccc3N(Cc3cncn3C)C2)S(=O)(=O)c2cn(C)c(C)n2)CC1 (configuration not stated)
Resp: 39

Req: What value of inhibition has been recorded for this entry: Cn1cncc1CN1CC(N(Cc2ccc(S(C)(=O)=O)cc2)S(=O)(=O)c2cncn2C)Cc2cc(C#N)ccc21 (configuration not stated)
Resp: 84

Req: What value of inhibition has been recorded for this entry: COc1ccc(S(=O)(=O)N(Cc2ccccc2F)C2Cc3cc(C#N)ccc3N(Cc3cncn3C)C2)cc1 (configuration not stated)
Resp: 13

Req: What value of inhibition has been recorded for this entry: Cn1cncc1CN1CC(N(CCCNC(=O)OC(C)(C)C)S(=O)(=O)c2ccccn2)Cc2cc(C#N)ccc21 (configuration not stated)
Resp: 9

Req: What value of inhibition has been recorded for this entry: Cc1cc(=O)n(CCCCN(C2Cc3cc(C#N)ccc3N(Cc3cncn3C)C2)S(=O)(=O)c2ccccn2)c(=O)n1C (configuration not stated)
Resp: 0

Req: What value of inhibition has been recorded for this entry: Cn1cncc1CN1CC(N(Cc2ccccc2F)C(=O)C2CC2)Cc2cc(C#N)ccc21 (configuration not stated)
Resp: 0

Req: What value of inhibition has been recorded for this entry: Cn1cncc1CN1CC(N(CC2CCN(C(=O)Nc3ccc(Br)cc3)CC2)S(=O)(=O)c2ccccn2)Cc2cc(C#N)ccc21 (configuration not stated)
Resp: 0
